Test system: SNB-19
measurement-description: NCI tumour cell line growth inhibition, 48 h
The source made the active and inactive calls. Cut-off read from the data, not from the text of the source: active = GI50 up to about 1.1 µM and inactive = higher.
recorded-endpoint: GI50

compound=CN(C)C(=S)N/N=C\C(=N/NC(=S)N(C)C)c1ccccc1 recorded_endpoint=GI50 measured="17 µM (inactive)"
compound="COc1ccc(C2C3=C(COC3=O)Oc3cc4c(cc32)OCO4)cc1 (stereo unspecified)" recorded_endpoint=GI50 measured="61.4 µM (inactive)"
compound="CCCCC1(OC(=O)CCC(=O)O)CCC2(CCC(C)C(C/C=C(C)/C=C/C(O)C(C)/C=C/C(=O)O)O2)OC1CC/C(C)=C/C(=O)O (stereo unspecified)" recorded_endpoint=GI50 measured="3.11 µM (inactive)"
compound="NC(Cc1ccc(OCc2ccccc2)cn1)C(=O)O (stereo unspecified)" recorded_endpoint=GI50 measured="> 100 µM (inactive)"
compound="CCOC(=O)C1c2[nH]c3ccccc3c2CCN1C(=O)c1ccco1 (stereo unspecified)" recorded_endpoint=GI50 measured="> 10 µM (inactive)"
compound=O=c1[nH]c(=O)c2c([nH]1)[nH]c1ccc(Br)cc12 recorded_endpoint=GI50 measured="> 100 µM (inactive)"
compound=COc1ccc(-c2nc3ccccc3s2)cc1OC recorded_endpoint=GI50 measured="4.75 µM (inactive)"
compound=CN(C)C1(c2cc3ccccc3s2)CCCCC1 recorded_endpoint=GI50 measured="49 µM (inactive)"
compound="C/C=C1/C=CC2c3[nH]c4ccccc4c3CCN2C1 (stereo unspecified)" recorded_endpoint=GI50 measured="187 µM (inactive)"
compound=O=C1C=CC(=O)c2c(O)ccc(O)c21 recorded_endpoint=GI50 measured="8.41 µM (inactive)"
compound="CC12CCC(C/C1=N\\NC(N)=O)C2(C)C (stereo unspecified)" recorded_endpoint=GI50 measured="> 100 µM (inactive)"

Data provenance: ChEMBL document CHEMBL1201862
